Assay: Metabolic Stability Study, liver microsome incubation (mouse)
Assay type: in vitro ADME
Details: mouse liver microsomes 0.5 mg/mL, 1 μM compound, NADPH; NA^# = very stable, beyond the detection limits; read-out: T1/2 (min) mouse

| Molecule | half-life at 1 μM |
| --- | --- |
| COc1cc(CN2CCN(C3CC4(C3)CN(c3ccc(C(=O)NS(=O)(=O)c5ccc(NC[C@H]6CC[C@](C)(O)CC6)c([N+](=O)[O-])c5)c(Oc5cnc6[nH]cc(F)c6c5)c3)C4)[C@H](c3ccccc3C(C)C)C2)ccc1C1CC1 | 206 min |
| COc1ccc(CN2CCN(C3CC4(CCN(c5ccc(C(=O)NS(=O)(=O)c6ccc(NCC7(F)CCOCC7)c([N+](=O)[O-])c6)c(Oc6cnc7[nH]ccc7c6)c5)CC4)C3)[C@H](c3ccccc3C(C)C)C2)cc1 (single isomer, unassigned) | 202 min |
| COc1cc(CN2CCN(C3CC4(CCN(c5ccc(C(=O)NS(=O)(=O)c6ccc(NC[C@H]7CC[C@](C)(O)CC7)c([N+](=O)[O-])c6)c(Oc6cnc7[nH]ccc7c6)c5)CC4)C3)C(c3ccccc3C(C)C)C2)cc(OC)c1 (stereo partly drawn) | 205 min |

====

Target: Recombinant human Bcl-2 protein (Homo sapiens (Human), UniProt P10415)
Sequence (P10415 whole entry): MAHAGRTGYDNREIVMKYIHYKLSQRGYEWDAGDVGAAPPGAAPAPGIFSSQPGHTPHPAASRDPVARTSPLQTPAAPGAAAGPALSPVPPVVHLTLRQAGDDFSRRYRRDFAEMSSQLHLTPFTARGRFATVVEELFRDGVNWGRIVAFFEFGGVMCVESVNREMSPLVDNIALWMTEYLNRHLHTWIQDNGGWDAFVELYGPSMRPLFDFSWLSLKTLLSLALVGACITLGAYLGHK
Test: Bcl-2 TR-FRET Assay
Assay type: binding
Conditions: wild type Bcl-2; unit inferred; read-out: Bcl-2 WT

| Compound | IC50 |
| --- | --- |
| CC(C)c1ccccc1C1CN(Cc2cccc3c2OCO3)CCN1C1CC2(CCN(c3ccc(C(=O)NS(=O)(=O)c4ccc(NC[C@H]5CC[C@](C)(O)CC5)c([N+](=O)[O-])c4)c(Oc4cnc5[nH]ccc5c4)c3)CC2)C1 (stereo partly shown) | 0.097 nM |
| CC(C)c1ccccc1[C@@H]1CN(Cc2ccc3c(c2)OCC3)CCN1C1CC2(CCN(c3ccc(C(=O)NS(=O)(=O)c4ccc(NC[C@H]5CC[C@](C)(O)CC5)c([N+](=O)[O-])c4)c(Oc4cnc5[nH]ccc5c4)c3)CC2)C1 | 0.13 nM |
| COc1ccc(CN2CCN(C3CC4(CCN(c5ccc(C(=O)NS(=O)(=O)c6ccc(NC[C@H]7CC[C@](C)(O)CC7)c([N+](=O)[O-])c6)c(Oc6cnc7[nH]cc(Cl)c7c6)c5)CC4)C3)[C@H](c3ccccc3C(C)C)C2)cc1OC | 0.096 nM |
| COc1cc(CN2CCN(C3CC4(C3)CN(c3ccc(C(=O)NS(=O)(=O)c5ccc(NCC6CCOCC6)c([N+](=O)[O-])c5)c(Oc5cnc6[nH]ccc6c5)c3)C4)[C@H](c3ccccc3C(C)C)C2)ccc1C1CC1 | 0.25 nM |

====

Molecular target: recombinant human Bcl-2 D103Y protein (Homo sapiens (Human), UniProt P10415, D103Y)
Sequence (P10415 whole entry D103Y): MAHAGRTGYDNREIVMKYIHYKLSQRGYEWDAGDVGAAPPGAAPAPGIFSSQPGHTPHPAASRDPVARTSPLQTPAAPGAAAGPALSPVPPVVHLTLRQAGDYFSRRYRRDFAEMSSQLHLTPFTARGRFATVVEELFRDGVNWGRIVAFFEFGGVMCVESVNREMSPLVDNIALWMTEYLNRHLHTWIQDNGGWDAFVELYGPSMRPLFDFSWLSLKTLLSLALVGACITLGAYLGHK
Assay: Bcl-2-D103Y Biochemical Assay (TR-FRET)
Format: binding
Settings: ratio of IC50
This listing pairs compounds with measured Ratio of Bcl-2 D103Y/Bcl-2 WT.

| Compound | Ratio of Bcl-2 D103Y/Bcl-2 WT |
| --- | --- |
| CC(C)c1ccccc1C1CN(C(C)C)CCN1C1CC2(CCN(c3ccc(C(=O)NS(=O)(=O)c4ccc(NC[C@H]5CC[C@](C)(O)CC5)c([N+](=O)[O-])c4)c(Oc4cnc5[nH]ccc5c4)c3)CC2)C1 (stereo partly drawn) | 11 |
| COc1cc(CN2CCN(C3CC4(CCN(c5ccc(C(=O)NS(=O)(=O)c6ccc(NC[C@H]7CC[C@](C)(O)CC7)c([N+](=O)[O-])c6)c(Oc6cnc7[nH]ccc7c6)c5)CC4)C3)C(c3ccccc3C(C)C)C2)cc(C)c1OC (stereo partly drawn) | 1.3 |
| COc1cc(CN2CCN(C3CC4(C3)CN(c3ccc(C(=O)NS(=O)(=O)c5ccc(NC[C@H]6CC[C@](C)(O)CC6)c([N+](=O)[O-])c5)c(Oc5cnc6[nH]cc(F)c6c5)c3)C4)[C@H](c3ccccc3C(C)C)C2)cc2c1OCCC2 | 1.0 |
